These measurements were taken from PubChem BioAssay (NCI).

Experiment: NCI Yeast Anticancer Drug Screen. Data for the mlh1 rad18 strain (AID 175)
Conditions: S. cerevisiae mlh1 rad18 strain growth inhibition; at 50.0 µM unless noted
The panel holds about 79,000 compounds, 15% with a hit somewhere; the sample as a whole holds those more often. Active and inactive are the calls of the source. No stated cut-off is given here; in the data, active means growth inhibition above about 70%; inactive means the rest.
The reply should name one outcome from active, inactive

Prompt: Called result for `Cc1cc(N(CCC#N)CCC#N)ccc1N=Nc1ccc(S(N)(=O)=O)cc1`
Response: inactive

Prompt: Called result for `Cn1c(=O)[nH]c(=O)c2nc(-c3ccccc3)cnc21`
Response: inactive

Prompt: Called result for `CN(C)C(=S)S(=O)(=O)c1ccccc1`
Response: active

Prompt: Called result for `CCOC(=O)/C(C#N)=C/c1ccc(C)cc1`
Response: inactive

Prompt: Called result for `CC(=O)c1ccc2c(c1)sc1ccccc12`
Response: inactive

Prompt: Called result for C=C1CC(C)(COc2ccc3ccc(=O)oc3c2)OC1=O (stereo not given)
Response: inactive

Prompt: Called result for `O=C(CCl)Oc1ccc(C(=O)O)cc1`
Response: inactive

Prompt: Called result for CCCCN1C(=O)CC2[C@@H]3CCc4cc(OC(C)=O)ccc4C3CC[C@]2(C)C1=O (stereo not given in full)
Response: inactive

Prompt: Called result for `COc1ccc(/C=C2/C/C(=C/c3ccc(OC)cc3)C2=O)cc1`
Response: inactive

Prompt: Called result for O=S1(=O)CCC(c2ccccc2)C1 (stereo not given)
Response: inactive

Prompt: Called result for CC1CC(C)OC(c2ccccc2Cl)O1 (stereo not given)
Response: inactive

Prompt: Called result for `CCOC(=O)c1[nH]c(=S)n(C)c1C(=O)OCC`
Response: inactive

Prompt: Called result for `O=C(O)c1cc([N+](=O)[O-])c(O)c2ccccc12`
Response: inactive

Prompt: Called result for `CCN(CC)OC(=O)/C=C/c1ccccc1`
Response: inactive

Prompt: Called result for `COCc1cccc2ccnc(COC)c12`
Response: inactive

Prompt: Called result for `CO[C@H]1C[C@H](n2cc(C)c(=O)[nH]c2=O)O[C@@H]1CO`
Response: inactive

Prompt: Called result for `Cc1[nH]n(C(N)=S)c(=O)c1N=Nc1ccc([N+](=O)[O-])cc1Cl`
Response: inactive

Prompt: Called result for `C=CCCCCCCC=C`
Response: inactive

Prompt: Called result for `CC1=C(C(=O)OC(C)(C)C)C(c2ccc([N+](=O)[O-])cc2)C(C(=O)OC(C)(C)C)=C(C)N1`
Response: inactive

Prompt: Called result for `CCCCCCCCCCCC(=O)NC(=S)Nc1cccc(O)c1`
Response: active

Prompt: Called result for `O=c1[nH]c(/C=C/c2ccccc2)c([N+](=O)[O-])c(=O)[nH]1`
Response: inactive

Prompt: Called result for `COc1ccc(-c2cccc(C(=O)O)c2C(=O)O)cc1OC`
Response: inactive

Prompt: Called result for `Clc1ccc(-c2c(C3=NCCCN3)nnn2-c2ccc(Cl)cc2)cc1`
Response: inactive

Prompt: Called result for COC(=O)C1CCCCCCCCCCC12SCCCS2 (stereo not given)
Response: inactive

Prompt: Called result for `C=CCSC(=S)Nc1nc2ccc([N+](=O)[O-])cc2s1`
Response: inactive

###

Assay: NCI Yeast Anticancer Drug Screen. Data for the bub3 strain (AID 167)
Settings: S. cerevisiae bub3 mutant strain, hits give high values; at 50.0 µM unless noted
This is part of a sample that, as a whole, favours compounds with a hit. Of some 79,000 tested, about 15% had one in any assay.
Endpoint name: growth inhibition (%)
Quick note: give the figure in %, leave out the unit.

Prompt: Assign growth inhibition to the following record: `O=C(Nc1ccc(Cl)c(Cl)c1)Oc1cccc(NC(=S)Nc2ccccc2)c1`
Response: 69.8

Prompt: Assign growth inhibition to the following record: `O=C1N=C2Sc3ccc4ccccc4c3N2C1=O`
Response: 5.5

Prompt: Assign growth inhibition to the following record: C=C(C)C1CC[C@@](C)(O)[C@H](C#N)C1 (some centres undefined)
Response: -38.5

Prompt: Assign growth inhibition to the following record: CC1(C)C2CC(C(=O)O)C1C2 (centres undefined)
Response: -10.8

Prompt: Assign growth inhibition to the following record: COc1ccc(N2C(N)=C(C#N)C(C#N)(C#N)C2c2cccc([N+](=O)[O-])c2)cc1 (centres undefined)
Response: -31.9

Prompt: Assign growth inhibition to the following record: `C=C(CC(O)(C(F)(F)F)C(F)(F)F)CC(O)(C(F)(F)F)C(F)(F)F`
Response: 95

Prompt: Assign growth inhibition to the following record: `CC(C)N=C(N)N=C(N)N`
Response: 30.2

Prompt: Assign growth inhibition to the following record: `CC(=O)N(C(=O)CC(=O)NNCc1ccccc1Cl)c1ccc(Cl)cc1`
Response: -17

Prompt: Assign growth inhibition to the following record: `CC(C)(C)OC(=O)c1ccccc1C(=O)c1ccccc1`
Response: 9.05

Prompt: Assign growth inhibition to the following record: COc1nc(NC2OC(CO)C(O)C(O)C2O)c(I)c(=O)[nH]1 (centres undefined)
Response: -4.75

Prompt: Assign growth inhibition to the following record: O=C(CC1C(=O)Nc2ccccc2S1=O)Nc1cc(Cl)ccc1Cl (centres undefined)
Response: -4.6

Prompt: Assign growth inhibition to the following record: `Clc1ccccc1Nc1nc(Nc2ccccc2Cl)nc(Nc2ccccc2Cl)n1`
Response: 7.3

Prompt: Assign growth inhibition to the following record: O=C(Nc1ccc(Cl)cc1)C(Cl)C(Cl)c1ccc(Cl)cc1 (centres undefined)
Response: 9.05

Prompt: Assign growth inhibition to the following record: CC(=O)NC1C(OCc2ccccc2)OC(CO)C(O)C1OC(C)C(=O)N[C@@H](C)C(=O)N[C@H](CCC(=O)OCCNc1c2ccccc2nc2cccc([N+](=O)[O-])c12)C(N)=O (some centres undefined)
Response: 88.7

Prompt: Assign growth inhibition to the following record: `CC(=O)Nc1c(N)c2ccccc2c2ccccc12`
Response: -4.5

Prompt: Assign growth inhibition to the following record: COC(=O)C(=O)C1CCc2ccc3ccccc3c2C1=O (centres undefined)
Response: 2.3

Prompt: Assign growth inhibition to the following record: `Oc1c(CN2CCOCC2)ccc(CN2CCOCC2)c1O`
Response: 16.1

Prompt: Assign growth inhibition to the following record: `N#C/C(=C\c1ccc2ccccc2c1)C(=O)c1ccccc1`
Response: -17.7

Prompt: Assign growth inhibition to the following record: C[N+]1(CCN[N+]2(C)CCCCC2)CCc2ccccc2C1 (centres undefined)
Response: -39.3

Prompt: Assign growth inhibition to the following record: O=C(O)C1(F)CC1(c1ccccc1)c1ccccc1 (centres undefined)
Response: 5.6

Prompt: Assign growth inhibition to the following record: `O=P(O)(O)OP(=O)(O)O`
Response: -54.6

Prompt: Assign growth inhibition to the following record: `Cn1c(=S)[nH]c2c(Cl)cc(Cl)cc2c1=O`
Response: -27.7

Prompt: Assign growth inhibition to the following record: `Cc1cc(=O)oc2nn(CCO)c(C)c12`
Response: -10.6

Prompt: Assign growth inhibition to the following record: CC(O)COC(C)C (centres undefined)
Response: -1.85
